# Neutralization IC50, H3-Pa99 per record follows
target-under-test: HA of ca A/Panama/2007/99 (H3N2) (influenza A virus)
experimental-protocol: cell-based or functional assay
The reply should read as a number followed by its unit.

[
  {
    "binder": "Antibody 11 (antibody, V domains shown) VH: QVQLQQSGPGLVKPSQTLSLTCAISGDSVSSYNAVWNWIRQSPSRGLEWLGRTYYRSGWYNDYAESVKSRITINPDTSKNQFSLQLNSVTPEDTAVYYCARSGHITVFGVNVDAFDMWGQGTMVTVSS VL: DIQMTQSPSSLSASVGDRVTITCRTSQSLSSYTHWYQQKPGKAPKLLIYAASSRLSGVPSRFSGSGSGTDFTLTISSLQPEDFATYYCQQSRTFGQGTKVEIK",
    "Neutralization IC50, H3-Pa99": "2.18 µg/mL"
  },
  {
    "binder": "Antibody 13 (antibody, V domains shown) VH: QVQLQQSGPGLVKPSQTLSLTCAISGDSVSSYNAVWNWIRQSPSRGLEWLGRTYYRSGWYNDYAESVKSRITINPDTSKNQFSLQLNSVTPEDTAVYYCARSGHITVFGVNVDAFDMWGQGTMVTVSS VL: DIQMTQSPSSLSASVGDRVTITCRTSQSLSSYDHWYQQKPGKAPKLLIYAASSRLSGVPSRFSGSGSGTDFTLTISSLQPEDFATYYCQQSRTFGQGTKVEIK",
    "Neutralization IC50, H3-Pa99": "2.62 µg/mL"
  },
  {
    "binder": "Antibody 15 (antibody, V domains shown) VH: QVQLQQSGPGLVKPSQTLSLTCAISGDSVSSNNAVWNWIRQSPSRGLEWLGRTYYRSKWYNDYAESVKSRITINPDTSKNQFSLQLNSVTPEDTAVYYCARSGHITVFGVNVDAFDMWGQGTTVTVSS VL: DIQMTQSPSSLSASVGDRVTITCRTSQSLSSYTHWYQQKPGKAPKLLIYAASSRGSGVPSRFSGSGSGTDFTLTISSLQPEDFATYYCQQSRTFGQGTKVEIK",
    "Neutralization IC50, H3-Pa99": "3.39 µg/mL"
  },
  {
    "binder": "Antibody 3 (antibody, V domains shown) VH: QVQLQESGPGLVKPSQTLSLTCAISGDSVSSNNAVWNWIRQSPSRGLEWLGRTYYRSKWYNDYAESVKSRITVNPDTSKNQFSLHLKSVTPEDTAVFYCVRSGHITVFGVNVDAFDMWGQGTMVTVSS VL: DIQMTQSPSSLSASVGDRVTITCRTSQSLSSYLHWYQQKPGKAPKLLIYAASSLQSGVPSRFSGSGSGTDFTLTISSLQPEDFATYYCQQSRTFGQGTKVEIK",
    "Neutralization IC50, H3-Pa99": "9 µg/mL"
  }
]

Now look at this entry.
Documented Neutralization IC50, H3-Pa99 of Antibody 14 (antibody, V domains shown) VH: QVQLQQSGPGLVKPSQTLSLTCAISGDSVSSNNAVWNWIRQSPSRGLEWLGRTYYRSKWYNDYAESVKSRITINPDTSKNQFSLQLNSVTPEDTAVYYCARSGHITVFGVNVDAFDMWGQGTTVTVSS VL: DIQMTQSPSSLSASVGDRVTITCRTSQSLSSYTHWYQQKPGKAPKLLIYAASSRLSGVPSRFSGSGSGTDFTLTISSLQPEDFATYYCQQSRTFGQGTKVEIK : 4.36 µg/mL
